Counter-ions that a name gives are not always drawn.
# melting point annotations

Use these answered entries as a reference point.
Cc1cn2nc(-c3cc(=O)n4cc(N5CCNCC5)cc(C)c4n3)cc2c(C)n1 ... 254 to 264 °C
COc1ccc(-c2cc(=O)n3cc(C4=CCNCC4)ccc3n2)cc1OC ... 196 to 198 °C
CCCN1CCN(c2ccc3nc(-c4cc5c(CC)nc(C)cn5n4)cc(=O)n3c2)C[C@H]1C ... 243 to 245 °C
COc1ccc(-c2cc(=O)n3cc(N4CCN[C@@H](C)C4)cc(C)c3n2)cc1OC ... 176 to 182 °C
COc1ccc(-c2cc(=O)n3cc(N4CCC(N(C)C)CC4)ccc3c2)cc1F (as salt: acetate) ... 188 to 192 °C

**Query** # get_value(readout='melting point', item= CCN1C[C@@H]2CN(c3ccc4nc(-c5ccc(OC)c(F)c5)cc(=O)n4c3)C[C@@H]2C1 )
**Result** 157 to 167 °C

**Query** # get_value(readout='melting point', item= Cc1cn2nc(-c3cc(=O)n4cc(N5CCN6CCC[C@H]6C5)ccc4n3)cc2c(C)n1 )
**Result** 215 to 218 °C

**Query** # get_value(readout='melting point', item= Cc1cn2nc(-c3cc(=O)n4cc(C5CCN(CCCF)CC5)ccc4n3)cc2c(C)n1 )
**Result** 186 to 188 °C

**Query** # get_value(readout='melting point', item= C[C@H]1CN(c2ccc3nc(-c4cccc(N(C)C)c4)cc(=O)n3c2)CCN1 )
**Result** 144 to 146 °C

**Query** # get_value(readout='melting point', item= CCCNC1(C)CCN(c2ccc3nc(-c4cc5c(C)nc(C)cn5n4)cc(=O)n3c2)CC1 )
**Result** 181 to 183 °C

**Query** # get_value(readout='melting point', item= Cc1cn2nc(-c3cc(=O)n4cc(N5CCN(C6CC6)CC5)ccc4n3)cc2c(C)n1 )
**Result** 189 to 192 °C

**Query** # get_value(readout='melting point', item= COc1ccc(-c2cc(=O)n3cc(N4CCN[C@@H](C)C4)ccc3n2)cc1F )
**Result** 175 to 178 °C

**Query** # get_value(readout='melting point', item= COc1ccc(-c2cc(=O)n3cc(N4CCC(N)CC4)ccc3n2)cc1OC )
**Result** 182 to 185 °C
